Test system: GDP-bound KRAS wild-type protein (Homo sapiens, UniProt P01116)
Sequence (P01116 1-188 isoform P01116-2): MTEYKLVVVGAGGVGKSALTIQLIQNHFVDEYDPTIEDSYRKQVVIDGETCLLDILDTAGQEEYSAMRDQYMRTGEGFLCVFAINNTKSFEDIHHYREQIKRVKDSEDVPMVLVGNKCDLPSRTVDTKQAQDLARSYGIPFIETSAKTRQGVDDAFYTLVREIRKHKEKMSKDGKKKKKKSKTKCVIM
Assay method text: Binding to KRAS by surface plasmon resonance (SPR), dissociation constant KD
Condition summary: Single Cycle Kinetics, 1:1 binding model

{"Compound": "CCO[C@@H]1C[C@H]2C(=O)NC3(CCC3)C(=O)N(C)[C@@H](C3CCCC3)C(=O)N(C)[C@H](C(=O)N3CCOCC3)CC(=O)N(C)[C@@H](CC)C(=O)N[C@@H]([C@@H](C)CC)C(=O)N3CC[C@H]3C(=O)N(C)[C@H]3CC[C@@H](C)CN(C3=O)[C@@H](Cc3ccc(C(F)(F)F)cc3)C(=O)N(C)CC(=O)N[C@@H](CCc3ccc(C(F)(F)F)c(Cl)c3)C(=O)N2C1 [PP1375]", "Test system": "GDP-bound KRAS wild-type protein (Homo sapiens, UniProt P01116)", "Units label": "nM", "Kd": 0.23}
{"Compound": "CCO[C@@H]1C[C@H]2C(=O)NC3(CCC3)C(=O)N(C)[C@@H](C3CCCC3)C(=O)N(C)[C@H](C(=O)N3CCOCC3)CC(=O)N(C)[C@@H](CC(C)C)C(=O)N[C@@H]([C@@H](C)CC)C(=O)N3CC[C@H]3C(=O)N(C)[C@H]3C[C@@H](C)[C@@H](C)CN(C3=O)[C@@H](Cc3ccc(C(F)(F)F)cc3)C(=O)N(C)CC(=O)N[C@@H](CCc3ccc(C(F)(F)F)c(Cl)c3)C(=O)N2C1 [PP1361]", "Test system": "GDP-bound KRAS wild-type protein (Homo sapiens, UniProt P01116)", "Units label": "nM", "Kd": 0.15}
{"Compound": "CCO[C@@H]1C[C@H]2C(=O)NC3(CCC3)C(=O)N(C)[C@@H](C3CCCC3)C(=O)N(C)[C@H](C(=O)N3CCOCC3)CC(=O)N(C)[C@@H](CC3CC3)C(=O)N[C@@H]([C@@H](C)CC)C(=O)N(C)CC(=O)N(C)[C@H]3CCCCCN(C3=O)[C@@H](Cc3ccc(F)cc3)C(=O)N(C)CC(=O)N[C@@H](CCc3cc(F)c(C(F)(F)F)c(F)c3)C(=O)N2C1 [PP1178]", "Test system": "GDP-bound KRAS wild-type protein (Homo sapiens, UniProt P01116)", "Units label": "nM", "Kd": 0.16}
{"Compound": "CC[C@H](C)[C@@H]1NC(=O)[C@H](CC)N(C)C(=O)C[C@@H](C(=O)N(C)C)N(C)C(=O)[C@H](C2CCCC2)N(C)C(=O)C2(CCC2)NC(=O)[C@H](C)NC(=O)[C@H](CCc2cc(F)c(C(F)(F)F)c(F)c2)NC(=O)CN(C)C(=O)[C@H](Cc2ccc(C(F)(F)F)cc2)N2CC/C=C\\C[C@@H](C2=O)N(C)C(=O)CN(C)C1=O [PP1140]", "Test system": "GDP-bound KRAS wild-type protein (Homo sapiens, UniProt P01116)", "Units label": "nM", "Kd": 0.15}
{"Compound": "CCO[C@@H]1C[C@H]2C(=O)NC3(CCCC3)C(=O)N(C)[C@@H](C3CCCC3)C(=O)N(C)[C@H](C(=O)N(C)C)CC(=O)N(C)[C@@H](CC)C(=O)N[C@@H]([C@@H](C)CC)C(=O)N(C)CC(=O)N(C)[C@H]3CC[C@@H](C)CN(C3=O)[C@@H](Cc3ccc(C(F)(F)F)cc3)C(=O)N(C)CC(=O)N[C@@H](CCc3ccc(C(F)(F)F)c(Cl)c3)C(=O)N2C1 [PP1376]", "Test system": "GDP-bound KRAS wild-type protein (Homo sapiens, UniProt P01116)", "Units label": "nM", "Kd": 0.037}
{"Compound": "CCO[C@@H]1C[C@H]2C(=O)NC3(CCC3)C(=O)N(C)[C@@H](C3CCCC3)C(=O)N(C)[C@H](C(=O)N3CCCC3)CC(=O)N(C)[C@@H](CC)C(=O)N[C@@H]([C@@H](C)CC)C(=O)N(C)CC(=O)N(C)[C@H]3C/C=C\\CCN(C3=O)[C@@H](CC3CCCCC3)C(=O)N(C)CC(=O)N[C@@H](CCc3cc(F)c(C(F)(F)F)c(F)c3)C(=O)N2C1 [PP1443]", "Test system": "GDP-bound KRAS wild-type protein (Homo sapiens, UniProt P01116)", "Units label": "nM", "Kd": 0.15}
{"Compound": "CC[C@H](C)[C@@H]1NC(=O)[C@H](C)N(C)C(=O)C[C@@H](C(=O)N(C)C)N(C)C(=O)[C@H](C2CCCC2)N(C)C(=O)C2(CCC2)NC(=O)[C@@H]2CCCN2C(=O)[C@H](CCc2cc(F)c(C(F)(F)F)c(F)c2)NC(=O)CN(C)C(=O)[C@H](Cc2ccc(C(F)(F)F)cc2)N2CC/C=C\\C[C@@H](C2=O)N(C)C(=O)CN(C)C1=O [PP1271]", "Test system": "GDP-bound KRAS wild-type protein (Homo sapiens, UniProt P01116)", "Units label": "nM", "Kd": 0.054}
{"Compound": "CCO[C@@H]1C[C@H]2C(=O)NC3(CCC3)C(=O)N(C)[C@@H](C(CC)CC)C(=O)N(C)[C@H](C)CC(=O)N(C)[C@@H](CC(C)C)C(=O)N[C@@H]([C@@H](C)CC)C(=O)N(C)CC(=O)N(C)[C@H]3C/C=C\\CCN(C3=O)[C@@H](Cc3ccc(F)cc3)C(=O)N(C)CC(=O)N[C@@H](CCc3cc(F)c(C(F)(F)F)c(F)c3)C(=O)N2C1 [PP1525]", "Test system": "GDP-bound KRAS wild-type protein (Homo sapiens, UniProt P01116)", "Units label": "nM", "Kd": 1.7}
{"Compound": "CCO[C@@H]1C[C@H]2C(=O)NC3(CCC3)C(=O)N(C)[C@@H](C3CCCC3)C(=O)N(C)[C@H](C)CC(=O)N(C)[C@@H](CC3CC3)C(=O)N[C@@H]([C@@H](C)CC)C(=O)N(C)CC(=O)N(C)[C@H]3C/C=C\\CCN(C3=O)[C@@H](Cc3ccc(F)cc3C)C(=O)N(C)CC(=O)N[C@@H](CCc3cc(F)c(C(F)(F)F)c(F)c3)C(=O)N2C1 [PP1489]", "Test system": "GDP-bound KRAS wild-type protein (Homo sapiens, UniProt P01116)", "Units label": "nM", "Kd": 2.6}
{"Compound": "CCO[C@@H]1C[C@H]2C(=O)NC3(CCC3)C(=O)N(C)[C@@H](C3CCCC3)C(=O)N(C)[C@H](C(=O)N(C)C)CC(=O)N(C)[C@@H](Cc3cccc(C#N)c3)C(=O)N[C@@H]([C@@H](C)CC)C(=O)N(C)CC(=O)N(C)[C@H]3CCCCCN(C3=O)[C@@H](Cc3ccc(F)cc3)C(=O)N(C)CC(=O)N[C@@H](CCc3cc(F)c(C(F)(F)F)c(F)c3)C(=O)N2C1 [PP1156]", "Test system": "GDP-bound KRAS wild-type protein (Homo sapiens, UniProt P01116)", "Units label": "nM", "Kd": 0.063}
{"Compound": "CCO[C@@H]1C[C@H]2C(=O)NC3(CCC3)C(=O)N(C)[C@@H](C3CCCC3)C(=O)N(C)[C@H](C(=O)N3CCOCC3)CC(=O)N(C)[C@@H](CC3CC3)C(=O)N[C@@H]([C@@H](C)CC)C(=O)N(C)CC(=O)N(C)[C@H]3C/C=C\\CCN(C3=O)[C@@H](Cc3ccc(F)cc3C)C(=O)N(C)CC(=O)N[C@@H](CCc3cc(F)c(C(F)(F)F)c(F)c3)C(=O)N2C1 [PP1495]", "Test system": "GDP-bound KRAS wild-type protein (Homo sapiens, UniProt P01116)", "Units label": "nM", "Kd": 0.55}
